Target of assay: Coenzyme A biosynthesis bifunctional protein CoaBC (Mycobacterium tuberculosis (strain ATCC 25618 / H37Rv))
Sequence (whole entry): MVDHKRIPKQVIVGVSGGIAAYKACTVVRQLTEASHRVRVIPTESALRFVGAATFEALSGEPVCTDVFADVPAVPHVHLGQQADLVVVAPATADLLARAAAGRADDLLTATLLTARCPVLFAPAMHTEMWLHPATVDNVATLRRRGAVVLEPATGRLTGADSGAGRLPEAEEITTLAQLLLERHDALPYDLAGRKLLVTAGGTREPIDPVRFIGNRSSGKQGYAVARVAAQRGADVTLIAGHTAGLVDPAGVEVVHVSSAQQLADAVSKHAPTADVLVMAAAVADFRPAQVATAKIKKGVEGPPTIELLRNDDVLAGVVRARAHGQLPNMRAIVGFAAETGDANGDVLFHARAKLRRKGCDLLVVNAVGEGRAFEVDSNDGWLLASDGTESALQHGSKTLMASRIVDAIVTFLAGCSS
Test: Biomol Green assay for MtCoaBC inhibitor, OD650 read
Type: functional
Set-up: scale not given: in the data most compounds retested in dose-response had high values
Protocol conditions: 30 µM
Among all 67,000 compounds or so, about 40 (0.06%) showed an effect of 50% or more. This is one part of a sample in which strong results are shown more often than they occur.
Assay readout: Percent Effect (%)

In [3]: df
Out[3]:
                                    compound  value_reported
 0  Cc1ccc(N2CC[C@H]3OCC[C@@]3(C(=O)N(C)C)C2)nn1            2.24
 1  CC(C)OC(=O)N1C[C@H]2CC[C@@H]1CN(Cc1cccnc1)C2            5.14
 2  CC(C)C(NC(=O)NCC1CC1)c1nnc2n1CCC2 (stereo not drawn)          -0.508
 3  CN1CCC(C)(CNC(=O)c2ccc(SCc3cccnc3)cc2)CC1           -1.65
 4  O=C1[C@H]2CN(C3CCOC3)C[C@H]2CN1c1ccccc1 (stereo partly drawn)            2.66
 5    COc1ccc(CN2CCCC2)cc1Oc1ccc(NC(C)=O)cc1            1.65
 6  CC(C)CCN1C[C@H]2C[C@H](C(=O)N3CCCC3)[C@@H](C1)O2            1.46
 7   O=C(COCCOc1ccccc1)NC1CCN(C(=O)C2CC2)CC1           -27.3
 8  CO[C@@H]1CN(Cc2scnc2C)[C@@H]2CCCO[C@@H]21           -51.5
 9            O=S(=O)(CCCn1cncn1)Cc1ccccc1Cl               0
10          CCOCCN1CCN(CCc2ccc3c(c2)CCO3)CC1           -14.1
11  CC(NC(=O)CN1CCCC1=O)c1ccc(Cl)s1 (stereo not drawn)          -0.806
12  CN(C)CCN1CCO[C@H]2CN(C(=O)c3ccsc3)C[C@H]21           0.976
13            COCc1nc2cc(NCc3cc[nH]n3)ccc2o1            10.3
14  CCCc1cc(C(=O)N2C[C@H]3CC=C(C)C[C@H]3C2)ccn1             2.3
15  CCC1(CNC(=O)NC(c2nnc3n2CCC3)C(C)C)CCC1 (stereo not drawn)           -3.55
16  O=C(NC1CCC1)[C@@H]1C[C@@H]2CCN(Cc3ccncc3)C[C@H]2O1             4.7
17            COCc1nc2cc(NCc3ccc(C)o3)ccc2o1              13
18  C[C@H]1C[C@H]2CN(C(=O)c3ccncn3)CC[C@@H]2O1            3.76
19  COC[C@@]12CC[C@@H](N3CCOCC3)C[C@H]1CCN(c1cnccn1)C2           -5.95
20  O=C(NC1CC1)[C@@H]1CCO[C@@H]2CCN(C3CCCC3)C[C@H]21            7.17
21  Cc1occc1C(=O)N1C[C@H]2CCCC(OCc3cccnc3)[C@H]2C1 (stereo partly drawn)            7.49
22  O=C(NCC1CC1)[C@@H]1CCO[C@@H]2CCN(c3ncccn3)C[C@@H]21           0.323

###

Target of assay: Coenzyme A biosynthesis bifunctional protein CoaBC (Mycobacterium tuberculosis (strain ATCC 25618 / H37Rv))
Test: Biomol Green assay for MtCoaBC inhibitor, OD650 read
Format: functional
Set-up: scale not given: in the data most compounds retested in dose-response had high values
Protocol conditions: 30 µM
Hit rate of the full screen: of about 67,000 compounds, about 40 (0.06%) showed an effect of 50% or more. This excerpt belongs to a sample that is enriched for strong results.
Assay readout: Percent Effect (%)

In [3]: df
Out[3]:
                                    molecule  value_reported
 0  Cc1cnn(CC2CCCN2Cc2ncc(-c3ccccc3)o2)c1 (configuration not stated)            2.73
 1  COCCN1C(=O)CC[C@@H]2[C@H]1CCN2C(=O)N(C)C            12.9
 2  c1cc(COC[C@@]23CCC[C@@H]2CN(C2CCOCC2)C3)ccn1            6.42
 3  Cn1nc(-c2cccs2)cc1[C@H]1CN2CC[C@H]1C[C@@H]2CN           -39.9
 4  CCCS(=O)(=O)N1C[C@@H]2CN(Cc3cnn(C)c3)CCO[C@@H]2C1               4
 5  CC(C)c1nc(C(=O)N2C[C@H]3CC[C@@H]2CN(C2CCOCC2)C3)cs1            5.66
 6  Cc1cccc(CN2CC[C@@H]3[C@@H]2CCN3C(=O)c2cnoc2C)n1            8.49
 7  CN1C[C@@H](F)[C@@H](OCc2nc3ccc(C#N)cc3[nH]2)C1             8.8
 8   CCN1C[C@H]2CCN(C(=O)NC)CC[C@H]2S1(=O)=O            8.02
 9  Cc1nc(CN2CC[C@H]3[C@@H]2CCC(=O)N3c2cnn(C)c2)cs1           -3.58
10  CC(C)CN1CC[C@@H]2[C@@H]1CCN2S(=O)(=O)c1cn(C)cn1            4.68
11          COc1cnc(N2CCN(C)CC2)nc1-c1ccnn1C            5.52

###

Target of assay: Coenzyme A biosynthesis bifunctional protein CoaBC (Mycobacterium tuberculosis (strain ATCC 25618 / H37Rv))
Sequence (whole entry): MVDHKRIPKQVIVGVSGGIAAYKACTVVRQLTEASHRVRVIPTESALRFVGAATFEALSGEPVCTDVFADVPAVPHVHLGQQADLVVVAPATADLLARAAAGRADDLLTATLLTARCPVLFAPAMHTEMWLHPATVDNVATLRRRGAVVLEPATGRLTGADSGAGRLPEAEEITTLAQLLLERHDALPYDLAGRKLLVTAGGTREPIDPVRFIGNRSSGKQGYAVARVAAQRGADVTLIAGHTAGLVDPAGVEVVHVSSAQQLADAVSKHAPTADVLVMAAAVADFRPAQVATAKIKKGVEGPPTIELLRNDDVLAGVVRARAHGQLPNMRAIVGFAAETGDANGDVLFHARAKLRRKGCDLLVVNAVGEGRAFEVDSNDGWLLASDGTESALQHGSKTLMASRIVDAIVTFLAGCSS
Test: Biomol Green assay for MtCoaBC inhibitor, OD650 read
Assay type: functional
Set-up: scale not given: in the data most compounds retested in dose-response had high values
Protocol conditions: 30 µM
Hit rate of the full screen: of about 67,000 compounds, about 40 (0.06%) showed an effect of 50% or more. This is one part of a sample in which strong results are shown more often than they occur.
Percent Effect reference
Assay readout: Percent Effect (%)

                                   compound  value_reported
0  O=C1OCCN1CC(=O)N1C[C@H]2CC[C@@H]1CN(C(=O)c1cccnc1)C2            7.56
1  Cn1cc(CN2C[C@H]3CCC[C@@H](CNc4ncccn4)[C@H]3C2)cn1           -2.24
2  COc1ccc(CN2C[C@H]3CCC[C@@H](CN(C)C4CC4)[C@H]3C2)cn1           -25.8
3  Cc1nonc1C(=O)N1CC[C@@]2(O)CCN(C3CCCCC3)C[C@H]2C1            10.8
4  Cc1ccc(-n2cc(S(=O)(=O)Nc3cccc(C(=O)O)c3C)cn2)cc1           0.726
5  Cc1ccc(NS(=O)(=O)c2cnn(Cc3ccccc3)c2)c(C(=O)O)c1           0.726
6  CCS(=O)(=O)N1CC[C@H]2CO[C@H](CN(C)C)[C@H]2C1          -0.203
7            O=C1CO[C@@H]2CNC[C@H]2N1CC1CC1               0
8  CCOCC1CN(C(=O)N2CCCC2)Cc2cnn(C)c21 (stereo not given)            -2.1
9  CC(C)N1[C@H](Cn2cncn2)C[C@@H]2CN(Cc3nccn3C)CC[C@@H]21            4.19
